System: J774.A1
experiment.notes: Cytotoxicity against mouse J774.A1 cells after 72 hrs by MTS assay
Format: cell-based
assay.setup: J774.A1, 72 h
assay.metric: IC50

molecule_smiles=C[C@@H]1C[C@H]2O[C@@H]2/C=C\C=C\C(=O)Cc2c(Cl)c(O)cc(O)c2C(=O)O1 assay_result="2.35 µM"
molecule_smiles=COCCCNc1cc(-n2nc(C)c3c2CN(C(=O)c2ccc(C)cc2)CC3=O)ccc1C(N)=O assay_result="26.3 µM"
molecule_smiles=COCCCNc1cc(-n2nc(C)c3c2CN(C(=O)C2CCCC2)CC3=O)ccc1C(N)=O assay_result="> 50 µM"
molecule_smiles=CC1(C)CC(=O)c2c(C(F)(F)F)nn(-c3ccc(C(N)=O)c(N[C@H]4CC[C@H](O)CC4)c3)c2C1 assay_result="< 0.06 µM"
molecule_smiles=COCCCNc1cc(-n2nc(C)c3c2CCCC3=O)ccc1C(N)=O assay_result="> 50 µM"
molecule_smiles=COCCCNc1cc(-n2nc(C)c3c2CN(C(=O)NCc2ccccc2)CC3=O)ccc1C(N)=O assay_result="> 50 µM"
molecule_smiles=CCCCCCCCCCCCCCCCOP(=O)([O-])OCC[N+](C)(C)C assay_result="> 50 µM"
molecule_smiles=COCCCNc1cc(-n2nc(C)c3c2CN(C(N)=O)CC3=O)ccc1C(N)=O assay_result="> 50 µM"
molecule_smiles=COCCCNc1cc(-n2nc(C)c3c2CC(C)(C)CC3=O)ccc1C(N)=O assay_result="3.52 µM"
molecule_smiles=COCCCNc1cc(-n2nc(C)c3c2CN(C(=O)C(C)C)CC3=O)ccc1C(N)=O assay_result="37.3 µM"
molecule_smiles=CCC(=O)N1CC(=O)c2c(C)nn(-c3ccc(C(N)=O)c(NCCCOC)c3)c2C1 assay_result="> 50 µM"
molecule_smiles=COCCCNc1cc(-n2nc(C)c3c2CN(Cc2ccccc2)CC3=O)ccc1C(N)=O assay_result="> 50 µM"
molecule_smiles=COCCCNc1cc(-n2nc(C)c3c2CNCC3=O)ccc1C(N)=O assay_result="> 50 µM"
molecule_smiles=COCCCNc1cc(-n2nc(C)c3c2CN(C(=O)COC)CC3=O)ccc1C(N)=O assay_result="> 50 µM"
molecule_smiles=COCCCNc1cc(-n2nc(C)c3c2CN(S(C)(=O)=O)CC3=O)ccc1C(N)=O assay_result="25.5 µM"
molecule_smiles=COCCCNc1cc(-n2nc(C)c3c2CN(C(C)=O)CC3=O)ccc1C(N)=O assay_result="> 50 µM"
molecule_smiles=Cc1nn(-c2ccc3c(N)ncnc3c2)c2c1C(=O)CC(C)(C)C2 assay_result="> 50 µM"

The reported measurements were obtained from ChEMBL document CHEMBL4118092.
